B1: HDV Ribozyme (parent)
chain: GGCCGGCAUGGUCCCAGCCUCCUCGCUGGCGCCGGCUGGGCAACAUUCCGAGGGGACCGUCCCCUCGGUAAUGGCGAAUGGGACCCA

# Variants of: B1
# TEST_SUMMARY: self-cleavage, relative activity (ratio to wild type); higher = more cleavage; co-transcriptional
Think of 0.5 as a floor: if self-cleavage stands on it or above, it is MET; beneath it, NOT MET.

BIOSEQUENCE	CLASSIFICATION
GGCCGGCAUGGUCCCAGCCUCCUCGCUGGCGCCGGCUGGGCAACAUUCCGAGGGAACCGUCCCCUCGGUAAUGGCGAAGGGGACCCA [G55A U79G]	MET

Exercise: Kindly determine if self-cleavage recorded for GCCCGGCAUGGUCCCAGCCUCAUCGCUGGCGCCGGCUGGGCAACAUUCCGAGGGGACCGUCCCCUCGGUAAUGGCGAAUGGGACCCA [G2C C22A] is above or exactly 0.5.
Key: NOT MET

Exercise: Record GGCCGGCAUGGUCUCAGCCUCCUCGCUGGCGCCGGCUGGGCAACAUUCCGAGGGGACCGUCCCCUCGGUAAUGGCGAAGGGGACCCA [C14U U79G] ; criterion: self-cleavage no lower than 0.5. Met?
Key: MET

Exercise: Can GGCCGGCAUGGUCCCAGCCUCCUCGCUGGCGCCGGCUGGGCAACAUUCCGUGGGGACCGUCCCCUCGGUCAUGGCGAAUGGGACCCA [A51U A70C] be said to have self-cleavage at or above 0.5?
Key: MET

Exercise: Decide: is the reported value of self-cleavage for GGCCGGCAUGGUCCCAGCCUCCUCGCUGGCGCCGGCUGGGCAACAUUCCGAGGGGACGGUCCCCUCGGUAAUGGCGAAUCGGACCCA [C58G G80C] equal to or greater than 0.5?
Key: NOT MET
